Cited source for all entries: PubChem BioAssay AID1963838

# System: 855422-203-R-J1-PDC complex spheroid viability
# PROTOCOL_SUMMARY: Anticancer human tumor 855422-203-R-J1-PDC patient-derived bladder carcinoma cell line growth inhibition [POLQ]; active = viability on the fitted dose curve at most 10% of control; inactive = the rest
# RECORDED_CONDITIONS: second compound 1 µM; first compound 3.16 µM
Choose the fitting class; nothing outside yes (1) for active, no (0) for inactive is accepted.

Worked set:
{"MOLECULE": "COc1cccc2c1C(=O)c1c(O)c3c(c(O)c1C2=O)CC(O)(C(=O)CO)CC3OC1CC(N)C(O)C(C)O1 (stereo unspecified) + Cc1cccc(N(C)C(=O)C2C(O)CCN2c2nc(C)cc(C(F)(F)F)c2C#N)c1", "DISCRETE_LABEL": "yes (1)"}
{"MOLECULE": "COc1cc(C2c3cc4c(cc3C(OC3OC5COC(C)OC5C(O)C3O)C3COC(=O)C23)OCO4)cc(OC)c1O (stereo unspecified) + Nc1ccc(C#CCN(C(=O)Cc2ncc(C(F)(F)F)cc2C(F)(F)F)c2ccc(F)cc2)nn1", "DISCRETE_LABEL": "no (0)"}
{"MOLECULE": "CC1COCCN1c1cc(C2(O)CC3CCC(C2)O3)c2cnn(-c3ccn[nH]3)c2n1 (stereo unspecified) + Cc1cccc(N(C)C(=O)C2C(O)CCN2c2nc(C)cc(C(F)(F)F)c2C#N)c1", "DISCRETE_LABEL": "yes (1)"}

Identify the outcome logged in this assay for the molecule shown: CCCS(=O)(=O)Nc1ccc(F)c(C(=O)c2c[nH]c3ncc(-c4ccc(Cl)cc4)cc23)c1F + COC1C(OC(N)=O)C(O)C(Oc2ccc3c(O)c(NC(=O)c4ccc(O)c(CC=C(C)C)c4)c(=O)oc3c2C)OC1(C)C no (0)

---

# Test system: 855422-203-R-J1-PDC complex spheroid viability
# PROTOCOL_SUMMARY: Anticancer human tumor 855422-203-R-J1-PDC cell line growth inhibition [POLQ];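 note: spheroids exposed to compounds for seven days before readout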
# RECORDED_CONDITIONS: curve of first compound; second compound 1 µM
Could you please report measured pIC50 for the items listed next?
One number for each entry, as −log10 of the molar value.

Hey, quick one: what's pIC50 for each of these?
1. O=c1[nH]cc(F)c(=O)[nH]1 + Nc1ccc(C#CCN(C(=O)Cc2ncc(C(F)(F)F)cc2C(F)(F)F)c2ccc(F)cc2)nn1
2. COc1cccc(OCCCN)c1-c1cc(Nc2cnc(C#N)cn2)n[nH]1 + COC1C(OC(N)=O)C(O)C(Oc2ccc3c(O)c(NC(=O)c4ccc(O)c(CC=C(C)C)c4)c(=O)oc3c2C)OC1(C)C

1: 5.62; 2: 7.80

Record pIC50 for all entries; do not skip any.
1. CCc1cc2c(N3CCc4c(cc(Cn5ccnc5)cc4-c4cn(C)nc4C(F)(F)F)C3=O)ccnc2c(OC)n1 + COC1C(OC(N)=O)C(O)C(Oc2ccc3c(O)c(NC(=O)c4ccc(O)c(CC=C(C)C)c4)c(=O)oc3c2C)OC1(C)C
2. CC1COCCN1c1cc(C2(O)CC3CCC(C2)O3)c2cnn(-c3ccn[nH]3)c2n1 (stereo unspecified) + Cc1cccc(N(C)C(=O)C2C(O)CCN2c2nc(C)cc(C(F)(F)F)c2C#N)c1
3. COc1cc(C2c3cc4c(cc3C(OC3OC5COC(C)OC5C(O)C3O)C3COC(=O)C23)OCO4)cc(OC)c1O (stereo unspecified) + Cc1cccc(N(C)C(=O)C2C(O)CCN2c2nc(C)cc(C(F)(F)F)c2C#N)c1
4. Nc1ccn(C2OC(CO)C(O)C2(F)F)c(=O)n1 (stereo unspecified) + Nc1ccc(C#CCN(C(=O)Cc2ncc(C(F)(F)F)cc2C(F)(F)F)c2ccc(F)cc2)nn1
5. CCc1cc2c(N3CCc4c(cc(Cn5ccnc5)cc4-c4cn(C)nc4C(F)(F)F)C3=O)cc(C)nc2c(OC)n1 + Cc1cccc(N(C)C(=O)C2C(O)CCN2c2nc(C)cc(C(F)(F)F)c2C#N)c1

5.59
7.05
6.72
7.04
5.13

Dear colleague, could you please provide pIC50 for the compounds listed below?
1. CC1COCCN1c1cc(C2(O)CC3CCC(C2)O3)c2cnn(-c3ccn[nH]3)c2n1 (stereo unspecified) + COC1C(OC(N)=O)C(O)C(Oc2ccc3c(O)c(NC(=O)c4ccc(O)c(CC=C(C)C)c4)c(=O)oc3c2C)OC1(C)C
2. COc1ccc([C@@H](O)c2cc(-c3ncnc4cc(N5CCOCC5)ccc34)c(F)cc2Cl)nn1 + Cc1cccc(N(C)C(=O)C2C(O)CCN2c2nc(C)cc(C(F)(F)F)c2C#N)c1
3. Nc1ccn(C2OC(CO)C(O)C2(F)F)c(=O)n1 (stereo unspecified) + Cc1cccc(N(C)C(=O)C2C(O)CCN2c2nc(C)cc(C(F)(F)F)c2C#N)c1

1: 6.97; 2: 5.52; 3: 7.07
